src = patent US10000471B2

Reported pIC50 values for the following compounds.
Test system: TNFα release in THP-1 cells
method notes: LPS-induced TNFα release in THP-1 cells
Assay type: cell-based, human
experimental parameters: Homo sapiens
Answer as the number alone; pIC50 is minus log10 of concentration in mol/L.

Form: Entry = "COCC(=O)Nc1nccc(Oc2ccc(NC(=O)Nc3cc(C(C)(C)C)nn3-c3ccc(CO)cc3)c(Cl)c2Cl)n1" | System = TNFα release in THP-1 cells | pIC50 = ____
9.00

Form: Entry = "COCC(=O)Nc1cc(Oc2ccc(NC(=O)Nc3cc(C(C)(C)C)nn3-c3ccc(C)cc3)c3[nH]ncc23)ccn1" | System = TNFα release in THP-1 cells | pIC50 = ____
6.95

Form: Entry = "CN(C)CCNC(=O)Nc1cc(Oc2ccc(NC(=O)Nc3cc(C(C)(C)C)nn3-c3ccc(CO)cc3)c(Cl)c2Cl)ccn1" | System = TNFα release in THP-1 cells | pIC50 = ____
8.62

Form: Entry = "CNC(=O)Nc1cc(Oc2ccc(NC(=O)Nc3cc(C4(C)CCCCC4)nn3-c3ccc(C)cc3)c(Cl)c2Cl)ccn1" | System = TNFα release in THP-1 cells | pIC50 = ____
7.89

Form: Entry = "CNC(=O)Nc1cc(Oc2ccc(NC(=O)Nc3cc(C(C)(C)C)nn3-c3ccc(C)cc3)c(Cl)c2Cl)ncn1" | System = TNFα release in THP-1 cells | pIC50 = ____
8.80

Form: Entry = "CNC(=O)Nc1cc(COc2ccc(NC(=O)Nc3cc(C(C)(C)C)nn3-c3ccc(OC)cc3)c(Cl)c2Cl)ccn1" | System = TNFα release in THP-1 cells | pIC50 = ____
8.33

Form: Entry = "CC(C)(C)c1cc(NC(=O)Nc2ccc(Oc3ccnc(NC(=O)NC4CC4)c3)c(Cl)c2Cl)n(-c2ccc(CO)cc2)n1" | System = TNFα release in THP-1 cells | pIC50 = ____
8.32

Form: Entry = "COCC(=O)Nc1nccc(Oc2ccc(NC(=O)Nc3cc(C(C)(C)C)nn3-c3ccc(C)cc3)c(Cl)c2Cl)n1" | System = TNFα release in THP-1 cells | pIC50 = ____
8.89

Form: Entry = "COc1ccc(-n2nc(C(C)(C)C)cc2NC(=O)Nc2ccc(OCc3ccnc(NC(=O)N4CCCC4)c3)c(Cl)c2Cl)cc1" | System = TNFα release in THP-1 cells | pIC50 = ____
7.34

----------
Tested on: IL-8 release in d-U937 cells
method notes: LPS-induced IL-8 release in d-U937 cells
Assay type: cell-based, human
experimental parameters: Homo sapiens, dU937
Procedure: LPS-Induced TNFα/IL-8 Release in d-U937 Cells U937 cells, a human monocytic cell line, were differentiated to macrophage-type cells by incubation with phorbol myristate acetate (PMA; 100 ng/ml) for 48 to 72 hr. […] The relative 50% effective concentration (REC50) was determined from the resultant concentration-response curve. The inhibition of IL-8 production was calculated at each concentration of test compound by comparison with vehicle control. […]
Reported pIC50 values for the following compounds.
Answer as the number alone; pIC50 is minus log10 of concentration in mol/L.

Example entries and their recorded answers appear below.
[[record]]
compound = "CC(C)(C)c1cc(NC(=O)Nc2ccc(Oc3ccnc(NC(=O)NC4CC4)c3)c(Cl)c2Cl)n(-c2ccc(CO)cc2)n1 [Example 55]"
study_system = "IL-8 release in d-U937 cells"
value = 8.51

[[record]]
compound = "COCC(=O)Nc1cc(COc2ccc(NC(=O)Nc3cc(C(C)(C)C)nn3-c3ccc(C)cc3)c3cccnc23)ccn1 [Example 16]"
study_system = "IL-8 release in d-U937 cells"
value = 5.30

[[record]]
compound = "COCC(=O)Nc1cc(Oc2ccc(NC(=O)Nc3cc(C(C)(C)C)nn3-c3ccc(C)cc3)c(Cl)c2)ccn1 [Example 27]"
study_system = "IL-8 release in d-U937 cells"
value = 8.48


What value of pIC50 has been recorded for this entry: COCC(=O)Nc1cc(Oc2ccc(NC(=O)Nc3cc(C(C)(C)C)nn3-c3ccc(C)cc3)cc2C(F)(F)F)ccn1 [Example 30]
8.19

What value of pIC50 has been recorded for this entry: COc1cc(-n2nc(C(C)(C)C)cc2NC(=O)Nc2ccc(Oc3ccnc(NC(=O)N4CC[C@H](N(C)C)C4)c3)c(Cl)c2Cl)ccc1CO [Example 84]
8.02

What value of pIC50 has been recorded for this entry: COCC(=O)Nc1cc(Oc2ccc(NC(=O)Nc3cc(C(C)(C)C)nn3-c3ccc(C)cc3)c(Cl)c2C#N)ccn1 [Example 4]
10.00

What value of pIC50 has been recorded for this entry: CNC(=O)Nc1nccc(Oc2ccc(NC(=O)Nc3cc(C(C)(C)C)nn3-c3ccc(OC)cc3)c(Cl)c2Cl)n1 [Example 98]
8.57
